All values here come from patent US20160053277A1.

- test.summary: 14C assay with IPTG-induced recombinant E. coli cells: 14CO2 captured from [14C]-carboxyl-labeled dicamba
- test.conditions: induced recombinant E. coli cells, [14C]-carboxyl-labeled dicamba, 14CO2 capture
measurement.label: Dicamba Decarboxylase Activity

{"molecule": "14 (protein, listed as Talaromyces marneffei) MARGKVSFEEAYEIPALADKSREQAALYIAPKDLDRYLSEIKSPTGGRLDISNKNGIGYTIYSLTVPGVQGIADKAKAEKHATDVNNWIYNEIKDHRDRMGAFAALSMHDPVQAGQELERCVKKLGFHGALLNNWQHAGTDGETYIFYDHPSYDVFWQKCVELDVPVYLHPSAPSGKVFDTFFKDRRYLIGPPISFAQDVALHTMGLITNGVFDRNPKLKLILGHLGERIPQDLWRTNHWLEDVERPLADSRGDTMSRKPLLYYFKNNIYVTTSGHFSTETVKFVCDYFGADRILFSVDSPYEKIEEGAGWYDKDKDNLTKALGGPQQYLDVGRENAKKLFKLGKYHDCDA", "recorded.result": "Low"}
{"molecule": "45 (protein, Mycobacterium sp) MANDDLAEVIAAHPDRFAGFAALPMRDPQAAAVELQRAVGTHGFCGAMINGLIEGRFLDDPAFAPLLSTAADLGVPLYLHPSFPPPQVAEIYFGGLAPVLGDLLATAGWGWHAETALHVLRLVATGVFDRLPELWVIVGHMGEMIPFALARIDTVLSPVAQLRQPVAQYFQTNVWFTTSGYTTFPPLQCALSTVGIDRLIFSVDYPYTDNTSARALLDTAPISPVDREKLAHGTVEALLRV", "recorded.result": "No"}
